Reference source for all entries: PubChem BioAssay (NCI)

- Tested on: SNB-19 CNS
- Test details: NCI tumour cell line growth inhibition, 48 h
Property: TGI

O=C(/C=C/c1ccccc1F)C(c1ccccc1)c1ccccc1	5.46 µM
N#Cc1ccc(Nc2nc3nc[nH]c3c(=O)[nH]2)cc1	> 100 µM
COCOc1cc(OC)ccc1C=O	> 100 µM

# context switch: different compound, same TGI
[Q] Please give the measured TGI for this compound: CC1(C)OC1CC/C(=C/CBr)CBr (stereo not given)
[A] 28.6 µM

====

- Tested on: OVCAR-3 ovarian
- Test details: NCI tumour cell line growth inhibition, 48 h
Readings of TGI for the listed compounds

Examples with answers:
CCOC(=O)c1c(NC(=S)NCc2ccccc2)sc2c1CCN(C)C2	> 100 µM
O=[N+]([O-])c1ccccc1S(=O)(=O)N1CCCc2cc(Cl)ccc21	> 100 µM
COc1ccc(NS(=O)C2CCCCC2)cc1 (stereo unspecified)	> 100 µM
CC(C)(C)c1ccccc1NS(=O)(=O)c1ccccc1	> 100 µM

[Q] Please give the measured TGI for this compound: N#CC(C#N)=C1NC(=O)C(c2ccccc2)C(=O)N1 (stereo unspecified)
[A] > 100 µM

[Q] Please give the measured TGI for this compound: `O=Cc1ccc(C(F)(F)F)cc1.[C-]#[O+].[C-]#[O+].[C-]#[O+].[Cr]`
[A] > 100 µM
